System: C. neoformans var grubii, KN99
method-summary: Inhibition of C. neoformans growth, limiting dilution assay (MIC)
Assay type: cell-based
condition-notes: Cryptococcus neoformans; KN99α, YNB-02+1% DMSO, 35° C., 48 hours; minimal concentration inhibiting 80% of growth relative to vehicle
measurement-kind: MIC80 (µM)
Kindly provide the numeric value in µM only, without the unit symbol.

Please review the following examples before continuing.
compound: CC(C)c1ccc(O)c(=O)c(O)c1
MIC80 [µM]: 8
//
compound: Cc1cc(O)c(=O)c(O)cc1C(=O)c1ccc2ccccc2c1
MIC80 [µM]: 24
//
compound: Cc1cc(O)c(=O)c(O)cc1-c1ccc(C(F)(F)F)cc1
MIC80 [µM]: 15
//
compound: CC(C)c1cccc(=O)c(O)c1
MIC80 [µM]: 21

Given O=c1cccccc1O , state its recorded MIC80.
24

Given O=c1c(O)ccccc1O [Compound 172, 7-Hydroxytropolone] , state its recorded MIC80.
24

Given Cc1ccc(S(=O)(=O)Oc2cccccc2=O)cc1 , state its recorded MIC80.
41

Given CC(C)c1ccc(O)c(=O)cc1 , state its recorded MIC80.
8

Given O=C(Nc1ccc(O)c(=O)cc1)c1ccccc1 , state its recorded MIC80.
50

Given Cc1cc(O)c(=O)c(O)cc1C(=O)C1CC1 , state its recorded MIC80.
11

Given O=c1ccccc(Br)c1O , state its recorded MIC80.
7

Source of measurements: patent US10980754B2
